The reported numbers originate from ChEMBL document CHEMBL2384906.

# System: Escherichia coli
# ASSAY_SUMMARY: Antimicrobial activity against Escherichia coli ATCC 35218 assessed as diameter of inhibition zone at 20 uM after 24 hrs by Kirby -Baur disc diffusion method
# Type: functional
# PROTOCOL_CONDITIONS: ATCC 35218, 24 h, read-out: DIZ
RECORDED_ENDPOINT: zone of inhibition at 20 µM (mm)
Expressed in mm, but write only the number.

Please review the following examples before continuing.
O=C(O)c1cn(C2CC2)c2cc(N3CCNCC3)c(F)cc2c1=O	29
COc1cc(/C=C/C(CC(/C=C/c2ccc(O)c(OC)c2)=N/c2ccc(S(=O)(=O)Nc3cc(C)on3)cc2)=N\c2ccc(S(=O)(=O)Nc3cc(C)on3)cc2)ccc1O	18
COc1cc(/C=C/C(CC(/C=C/c2ccc(O)c(OC)c2)=N/c2ccc(S(=O)(=O)Nc3ccccn3)cc2)=N\c2ccc(S(=O)(=O)Nc3ccccn3)cc2)ccc1O	12

Can you look up the measured zone of inhibition at 20 µM of COc1ccc(NS(=O)(=O)c2ccc(/N=N/c3c(/C=C/c4ccc(O)c(OC)c4)nn(-c4ccccc4)c3/C=C/c3ccc(O)c(OC)c3)cc2)nn1 for me? 8

Can you look up the measured zone of inhibition at 20 µM of COc1cc(/C=C/C(O)=C/C(/C=C/c2ccc(O)c(OC)c2)=N/c2ccc(S(=O)(=O)Nc3cc(C)on3)cc2)ccc1O for me? 19

Can you look up the measured zone of inhibition at 20 µM of COc1cc(/C=C/c2nn(-c3ccccc3)c(/C=C/c3ccc(O)c(OC)c3)c2/N=N/c2ccc(S(=O)(=O)Nc3nc(C)cc(C)n3)cc2)ccc1O for me? 9

Can you look up the measured zone of inhibition at 20 µM of COc1cc(/C=C/c2nn(-c3ccccc3)c(/C=C/c3ccc(O)c(OC)c3)c2/N=N/c2ccc(S(=O)(=O)Nc3ccccn3)cc2)ccc1O for me? 7

Can you look up the measured zone of inhibition at 20 µM of COc1ccc(NS(=O)(=O)c2ccc(/N=C(\C=C\c3ccc(O)c(OC)c3)CC(/C=C/c3ccc(O)c(OC)c3)=N/c3ccc(S(=O)(=O)Nc4ccc(OC)nn4)cc3)cc2)nn1 for me? 14

---

# Tested on: Aspergillus flavus
# ASSAY_SUMMARY: Antifungal activity against Aspergillus flavus MTCC 1021 assessed as zone of inhibition at 80 uM after 48 hrs by disc diffusion method
# Type: functional
Calls of active or inactive are those of the source. No cut-off for these calls is given here.
RECORDED_ENDPOINT: inhibition zone (IZ)

COc1cc(/C=C/C(CC(/C=C/c2ccc(O)c(OC)c2)=N/c2ccc(S(N)(=O)=O)cc2)=N\c2ccc(S(N)(=O)=O)cc2)ccc1O	inactive
COc1cc(/C=C/c2nn(-c3ccccc3)c(/C=C/c3ccc(O)c(OC)c3)c2/N=N/c2ccc(S(=O)(=O)Nc3ccccn3)cc2)ccc1O	inactive
COc1cc(/C=C/c2nn(-c3ccccc3)c(/C=C/c3ccc(O)c(OC)c3)c2/N=N/c2ccc(S(=O)(=O)Nc3nc(C)cc(C)n3)cc2)ccc1O	inactive
COc1cc(/C=C/C(O)=C/C(/C=C/c2ccc(O)c(OC)c2)=N/c2ccc(S(N)(=O)=O)cc2)ccc1O	inactive
COc1cc(/C=C/c2noc(/C=C/c3ccc(O)c(OC)c3)c2/N=N/c2ccc(S(=O)(=O)Nc3nc(C)cc(C)n3)cc2)ccc1O	inactive

Can you look up the measured inhibition zone (IZ) of COc1ccc(NS(=O)(=O)c2ccc(/N=N/c3c(/C=C/c4ccc(O)c(OC)c4)noc3/C=C/c3ccc(O)c(OC)c3)cc2)nn1 for me? inactive

Can you look up the measured inhibition zone (IZ) of COc1cc(/C=C/c2noc(/C=C/c3ccc(O)c(OC)c3)c2/N=N/c2ccc(S(N)(=O)=O)cc2)ccc1O for me? inactive

Can you look up the measured inhibition zone (IZ) of COc1cc(/C=C/c2nn(-c3ccccc3)c(/C=C/c3ccc(O)c(OC)c3)c2/N=N/c2ccc(S(N)(=O)=O)cc2)ccc1O for me? inactive

Can you look up the measured inhibition zone (IZ) of COc1cc(/C=C/C(=O)CC(=O)/C=C/c2ccc(O)c(OC)c2)ccc1O for me? inactive

Can you look up the measured inhibition zone (IZ) of COc1cc(/C=C/c2noc(/C=C/c3ccc(O)c(OC)c3)c2/N=N/c2ccc(S(=O)(=O)Nc3cc(C)on3)cc2)ccc1O for me? inactive

Can you look up the measured inhibition zone (IZ) of OC(Cn1cncn1)(Cn1cncn1)c1ccc(F)cc1F for me? inactive

Can you look up the measured inhibition zone (IZ) of COc1cc(/C=C/c2noc(/C=C/c3ccc(O)c(OC)c3)c2/N=N/c2ccc(S(=O)(=O)Nc3ccccn3)cc2)ccc1O for me? inactive

Can you look up the measured inhibition zone (IZ) of COc1cc(/C=C/c2nn(-c3ccccc3)c(/C=C/c3ccc(O)c(OC)c3)c2/N=N/c2ccc(S(=O)(=O)Nc3cc(C)on3)cc2)ccc1O for me? inactive

Can you look up the measured inhibition zone (IZ) of COc1ccc(NS(=O)(=O)c2ccc(/N=N/c3c(/C=C/c4ccc(O)c(OC)c4)nn(-c4ccccc4)c3/C=C/c3ccc(O)c(OC)c3)cc2)nn1 for me? inactive

---

# Tested on: Mus musculus
# ASSAY_SUMMARY: Antiinflammatory activity in mouse assessed as inhibition of carrageenan-induced increase in paw volume at 200 mg/kg administered 1 hr prior to carrageenan challenge measured after 3 hrs relative to control
# Assay type: functional
Recorded inhibition in vivo at 200 mg/kg determines the label; the label ranges are low: < 20%; intermediate: ≥ 20% and < 40%; high: ≥ 40%

Solved entries:
COc1cc(/C=C/C(CC(/C=C/c2ccc(O)c(OC)c2)=N/c2ccc(S(=O)(=O)Nc3cc(C)on3)cc2)=N\c2ccc(S(=O)(=O)Nc3cc(C)on3)cc2)ccc1O	low
COc1cc(/C=C/C(CC(/C=C/c2ccc(O)c(OC)c2)=N/c2ccc(S(=O)(=O)Nc3ccccn3)cc2)=N\c2ccc(S(=O)(=O)Nc3ccccn3)cc2)ccc1O	low
COc1cc(/C=C/c2noc(/C=C/c3ccc(O)c(OC)c3)c2/N=N/c2ccc(S(=O)(=O)Nc3ccccn3)cc2)ccc1O	intermediate

Shifting focus to the compound that follows.
Please report the category associated with COc1ccc(NS(=O)(=O)c2ccc(/N=C(/C=C(O)/C=C/c3ccc(O)c(OC)c3)\C=C\c3ccc(O)c(OC)c3)cc2)nn1 , nothing else. intermediate

---

Listing of recorded zone of inhibition at 20 µM by entry.
# System: Trichoderma viride
# ASSAY_SUMMARY: Antifungal activity against Trichoderma viride MTCC 1107 assessed as zone of inhibition at 20 uM after 48 hrs by disc diffusion method
# Assay type: functional
# PROTOCOL_CONDITIONS: MTCC 1107, 48 h, read-out: IZ
Expressed in mm, but write only the number.

Please review the following examples before continuing.
COc1cc(/C=C/C(=O)C(/N=N/c2ccc(S(=O)(=O)Nc3ccccn3)cc2)=C(O)/C=C/c2ccc(O)c(OC)c2)ccc1O	10
COc1cc(/C=C/C(CC(/C=C/c2ccc(O)c(OC)c2)=N/c2ccc(S(=O)(=O)Nc3cc(C)on3)cc2)=N\c2ccc(S(=O)(=O)Nc3cc(C)on3)cc2)ccc1O	9
COc1cc(/C=C/C(CC(/C=C/c2ccc(O)c(OC)c2)=N/c2ccc(S(=O)(=O)Nc3nc(C)cc(C)n3)cc2)=N\c2ccc(S(=O)(=O)Nc3nc(C)cc(C)n3)cc2)ccc1O	18
COc1cc(/C=C/c2nn(-c3ccccc3)c(/C=C/c3ccc(O)c(OC)c3)c2/N=N/c2ccc(S(=O)(=O)Nc3nc(C)cc(C)n3)cc2)ccc1O	18
COc1cc(/C=C/C(=O)C(/N=N/c2ccc(S(=O)(=O)Nc3cc(C)on3)cc2)=C(O)/C=C/c2ccc(O)c(OC)c2)ccc1O	9

Let us examine a further case.
Can you look up the measured zone of inhibition at 20 µM of COc1ccc(NS(=O)(=O)c2ccc(/N=C(/C=C(O)/C=C/c3ccc(O)c(OC)c3)\C=C\c3ccc(O)c(OC)c3)cc2)nn1 for me? 12

---

# Tested on: Aspergillus niger
# ASSAY_SUMMARY: Antifungal activity against Aspergillus niger MTCC 1108 assessed as zone of inhibition at 80 uM after 48 hrs by disc diffusion method
# Format: functional
# PROTOCOL_CONDITIONS: MTCC 1108, 48 h, read-out: IZ
RECORDED_ENDPOINT: zone of inhibition at 80 µM (mm)
Expressed in mm, but write only the number.

Please review the following examples before continuing.
COc1ccc(NS(=O)(=O)c2ccc(/N=C(/C=C(O)/C=C/c3ccc(O)c(OC)c3)\C=C\c3ccc(O)c(OC)c3)cc2)nn1	14
COc1cc(/C=C/C(=O)C(/N=N/c2ccc(S(N)(=O)=O)cc2)=C(O)/C=C/c2ccc(O)c(OC)c2)ccc1O	10

Can you look up the measured zone of inhibition at 80 µM of COc1cc(/C=C/C(CC(/C=C/c2ccc(O)c(OC)c2)=N/c2ccc(S(=O)(=O)Nc3cc(C)on3)cc2)=N\c2ccc(S(=O)(=O)Nc3cc(C)on3)cc2)ccc1O for me? 10

Can you look up the measured zone of inhibition at 80 µM of COc1cc(/C=C/C(O)=C/C(/C=C/c2ccc(O)c(OC)c2)=N/c2ccc(S(N)(=O)=O)cc2)ccc1O for me? 11

Can you look up the measured zone of inhibition at 80 µM of COc1cc(/C=C/C(=O)C(/N=N/c2ccc(S(=O)(=O)Nc3ccccn3)cc2)=C(O)/C=C/c2ccc(O)c(OC)c2)ccc1O for me? 14

Can you look up the measured zone of inhibition at 80 µM of COc1cc(/C=C/C(=O)C(/N=N/c2ccc(S(=O)(=O)Nc3cc(C)on3)cc2)=C(O)/C=C/c2ccc(O)c(OC)c2)ccc1O for me? 12

Can you look up the measured zone of inhibition at 80 µM of COc1ccc(NS(=O)(=O)c2ccc(/N=N/C(C(=O)/C=C/c3ccc(O)c(OC)c3)=C(O)\C=C\c3ccc(O)c(OC)c3)cc2)nn1 for me? 12

Can you look up the measured zone of inhibition at 80 µM of COc1cc(/C=C/C(O)=C/C(/C=C/c2ccc(O)c(OC)c2)=N/c2ccc(S(=O)(=O)Nc3nc(C)cc(C)n3)cc2)ccc1O for me? 16

Can you look up the measured zone of inhibition at 80 µM of COc1ccc(NS(=O)(=O)c2ccc(/N=C(\C=C\c3ccc(O)c(OC)c3)CC(/C=C/c3ccc(O)c(OC)c3)=N/c3ccc(S(=O)(=O)Nc4ccc(OC)nn4)cc3)cc2)nn1 for me? 12

Can you look up the measured zone of inhibition at 80 µM of COc1cc(/C=C/C(=O)C(/N=N/c2ccc(S(=O)(=O)Nc3nc(C)cc(C)n3)cc2)=C(O)/C=C/c2ccc(O)c(OC)c2)ccc1O for me? 14

Can you look up the measured zone of inhibition at 80 µM of COc1cc(/C=C/C(O)=C/C(/C=C/c2ccc(O)c(OC)c2)=N/c2ccc(S(=O)(=O)Nc3ccccn3)cc2)ccc1O for me? 14

Can you look up the measured zone of inhibition at 80 µM of COc1cc(/C=C/C(O)=C/C(/C=C/c2ccc(O)c(OC)c2)=N/c2ccc(S(=O)(=O)Nc3cc(C)on3)cc2)ccc1O for me? 12
